target: purified human HDAC6 (Homo sapiens); construct: purchased BPS Bioscience 5006; experiment: HDAC6 Enzyme Assay; type: biochemical; details: purified human HDAC6, substrate Ac-Arg-Gly-Lys(Ac)-AMC, 1 hour at 30° C.; reported as bins
Hi there, I'd appreciate the recorded IC50 for every entry that follows.

Each molecule below has a recorded value; state its IC50.
1. CC(C)[C@@H](NC(=O)Nc1ccc(C#N)cc1)c1ccc(C(=O)NO)cc1 [Compound I-525]
2. CC(C)(C)C(NC(=O)c1cc2ccccc2[nH]1)c1ccc(C(=O)NO)cc1 (stereo not shown) [Compound I-127]

Return:
["< 100 nM", "< 100 nM"]

----------
Target: purified human HDAC6 (Homo sapiens)
Construct: purchased BPS Bioscience 5006
Sequence (Q9UBN7 1-1215): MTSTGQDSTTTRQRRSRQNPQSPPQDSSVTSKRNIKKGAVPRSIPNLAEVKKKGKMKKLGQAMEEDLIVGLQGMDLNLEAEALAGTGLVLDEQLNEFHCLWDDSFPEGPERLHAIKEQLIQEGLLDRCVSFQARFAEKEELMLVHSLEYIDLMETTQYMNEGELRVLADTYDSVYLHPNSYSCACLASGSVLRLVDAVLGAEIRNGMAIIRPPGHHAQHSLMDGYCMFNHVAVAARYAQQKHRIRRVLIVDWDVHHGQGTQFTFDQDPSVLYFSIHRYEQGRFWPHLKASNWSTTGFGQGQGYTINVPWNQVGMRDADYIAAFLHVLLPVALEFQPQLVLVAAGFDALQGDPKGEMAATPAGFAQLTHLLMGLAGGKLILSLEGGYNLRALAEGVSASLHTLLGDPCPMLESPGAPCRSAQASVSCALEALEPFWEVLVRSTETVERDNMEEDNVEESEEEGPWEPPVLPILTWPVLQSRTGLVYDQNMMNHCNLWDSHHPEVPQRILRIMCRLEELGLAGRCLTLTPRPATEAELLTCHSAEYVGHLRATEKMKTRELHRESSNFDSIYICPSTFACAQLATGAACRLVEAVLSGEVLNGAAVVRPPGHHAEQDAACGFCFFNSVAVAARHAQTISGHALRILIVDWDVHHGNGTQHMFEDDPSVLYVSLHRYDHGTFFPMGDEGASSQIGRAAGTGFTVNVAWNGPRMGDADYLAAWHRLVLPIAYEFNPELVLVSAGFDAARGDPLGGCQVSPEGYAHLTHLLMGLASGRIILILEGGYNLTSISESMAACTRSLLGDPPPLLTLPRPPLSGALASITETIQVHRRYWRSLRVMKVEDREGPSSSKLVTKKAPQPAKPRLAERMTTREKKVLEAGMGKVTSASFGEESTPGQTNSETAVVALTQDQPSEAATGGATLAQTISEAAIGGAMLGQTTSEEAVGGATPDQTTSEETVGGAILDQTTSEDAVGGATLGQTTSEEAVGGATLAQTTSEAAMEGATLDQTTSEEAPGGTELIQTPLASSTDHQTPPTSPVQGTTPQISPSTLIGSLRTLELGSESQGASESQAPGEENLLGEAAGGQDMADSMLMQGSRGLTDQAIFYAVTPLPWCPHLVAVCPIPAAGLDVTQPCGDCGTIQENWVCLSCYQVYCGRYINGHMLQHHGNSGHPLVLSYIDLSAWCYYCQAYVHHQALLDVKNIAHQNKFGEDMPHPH
Assay: HDAC6 Enzyme Assay
Assay type: biochemical
Settings: bin: greater than 1 μM
pIC50: −log10 of the molar value.
metric name: pIC50

Consider the worked cases shown below.
molecule	metric name	test result
CC(C)CC(=O)NC(C)c1ccc(C(=O)NO)cc1 (stereo not drawn)	pIC50	< 6.00
CC(NS(=O)(=O)c1ccc(C(F)(F)F)cc1)c1ccc(C(=O)NO)cc1 (stereo not drawn)	pIC50	< 6.00

Consider the record given below.
Enquiry: Supply pIC50 value. Item: Cc1cc(C(=O)NO)ccc1C(C)NC(=O)c1cccn1C (stereo not drawn)
Return: < 6.00
